# SPOT peptide array binding signal intensity annotations
target: SpBzz1-D1; assay: SPOT peptide array binding signal intensity (averaged, normalized) (arbitrary units (background-subtracted, floor 0; scale differs between SH3 domains)); higher = stronger binding of the SH3 domain to the peptide
Lab note: record just the number, no unit beside it.

>  <binder>
VATSTSPKLPPRGKQ

>  <quantitativeResult>
286

$$$$

// query Fill in: SPOT peptide array binding signal intensity of GKLKHIPRRPYEIER is ___
// result 240

// query Fill in: SPOT peptide array binding signal intensity of VRVKKRPLIRPLNSS is ___
// result 150

// query Fill in: SPOT peptide array binding signal intensity of RVRKTHVPASKRPSG is ___
// result 41

// query Fill in: SPOT peptide array binding signal intensity of SHRLWLYAAPKRPKT is ___
// result 171

// query Fill in: SPOT peptide array binding signal intensity of NNFYRPLLRSVLVLL is ___
// result 8

This collection of values is drawn from the supplement of paper PMC4466140.
